System: OVCAR-4 ovarian
Assay: NCI-60 one-dose screen, 48 h (100 = growth as untreated, 0 = no growth, -100 = all killed)
Settings: 10 µM unless noted
This is part of a sample that, as a whole, favours compounds with a hit. Of some 83,000 tested, about 20% had one in any assay.
// bucketize growth: group A: < 30%; group B: ≥ 30% and < 90%; group C: ≥ 90%

Problem: Please let me know in which category the item CC[C@H](C)[C@H](NC(=O)C12C3C4C1C1C2C3C41NC(C)=O)C(=O)N(C)[C@H](C[C@@H](OC(C)=O)c1nc(C(=O)N[C@@H](Cc2ccccc2)C[C@H](C)C(=O)OC)cs1)C(C)C (stereo partly specified) belongs.
Result: group B

Problem: Hello team, could you let me know which band the following molecule falls into: Nc1nnnc2nc[nH]c12
Result: group A

Problem: Using the reported growth, which band applies to COc1ccc(/C=C\c2cc(OC)c(OC)c(OC)c2)c(NS(=O)(=O)c2ccc(Cl)cc2)c1O ?
Result: group B

Problem: Dear colleague, I would appreciate it if you could identify the bin for CN[C@]1(c2ccccc2Cl)CCCC[C@H]1NCCCN1CCN(C)CC1 and reply at your convenience.
Result: group C

Problem: Field: class (growth) — entry: COC(=O)[C@@H](C)C[C@H](Cc1ccccc1)NC(=O)c1csc([C@@H](C[C@H](C(C)C)N(C)C(=O)[C@@H](NC(=O)[C@H]2CCCCN2C)C(C)C)OC(C)=O)n1
Result: group B

Problem: Which category does the recorded growth put O=P1(NCCCl)OCCCN1CCCl (stereo unspecified) in?
Result: group C

Problem: Entry Clc1cccc(N2COOC3(OOC2)C2CC4CC(C2)CC3C4)c1 belongs to which category?
Result: group C

Problem: Band for CCc1ccccc1[C@@H]1C[C@]2(C)CCO[C@@H]2OO1 ?
Result: group C

Problem: Place this molecule in its band: C/C1=C/C(=O)O[C@@H]2C[C@@H](CC[C@H](C)/C=C\C=C\CC1)O[C@@](O)([C@@H]1CSC(=O)N1CO)C2
Result: group A

Problem: Any idea which band O=P(N1CC1)(N1CC1)N1CCc2ccccc21 is in?
Result: group C

Problem: For the record CC[C@]12C=CCN3CC[C@@]4(c5ccc(OC)cc5N(C)[C@H]4[C@@](O)(C(=O)OC)[C@@H]1OC(=O)CCCC[P+](c1ccccc1)(c1ccccc1)c1ccccc1)[C@@H]32 , report the class its growth corresponds to.
Result: group A

Problem: Consider Cn1cc(-c2csc(-c3cn(CCN4CCOCC4)c4ccccc34)n2)c2cccnc21 . To which growth class does it belong?
Result: group B

Problem: Into which bin does this molecule go? CC(=O)O[C@H]1C(=O)[C@@]2(C)[C@H]([C@H](OC(=O)c3ccccc3)[C@]3(O)C[C@H](OC(=O)[C@H](OC(=O)OCC4COC(C)(C)O4)[C@@H](NC(=O)c4ccccc4)c4ccccc4)C(C)=C1C3(C)C)[C@]1(OC(C)=O)CO[C@@H]1C[C@@H]2O (stereo partly specified)
Result: group B

Problem: Which band does C[C@@]1(CCCCCCCCCc2ccc(O)cc2)C[C@]2(C)OC(=O)C[C@@H]2OO1 fall in?
Result: group B
